The reported measurements were obtained from PubChem BioAssay (NCI).

Tested on: OVCAR-8 ovarian
Test: NCI-60 one-dose screen, 48 h
Settings: 10 µM unless noted
The panel holds about 83,000 compounds, 20% with a hit somewhere; the sample as a whole holds those more often. Calls of active or inactive are those of the source. Rule for the calls: active = growth percent below 10; inactive = the rest.
Outcome (select one): Yes for active, No for inactive

Before answering, review these 9 worked examples.
[[record]]
compound = "c1ccc(Nc2ncc3c(n2)-c2cccn2CC3)cc1"
classification = "No"

[[record]]
compound = "COc1nc(OC)nc(-c2cc(C(=O)c3ccc(Br)cc3)n3cc(C)cc(C)c23)n1"
classification = "No"

[[record]]
compound = "CCOC(=O)c1ccc2n1CCCc1cnc(NC(C)=O)nc1-2"
classification = "No"

[[record]]
compound = "O=C(Nc1ccccc1)Nc1ccc(Nc2ncnc3sc4c(c23)CCCC4)cc1"
classification = "No"

[[record]]
compound = "COC(=O)c1c[n+]([O-])ccc1OC"
classification = "No"

[[record]]
compound = "CC(=O)c1cc(Nc2cc(C)nc(N)n2)cc(C(C)=O)c1"
classification = "No"

[[record]]
compound = "CCn1cnc(C[C@H](NC(=O)[C@@H](NC(=O)Nc2cc(C(F)(F)F)cc(C(F)(F)F)c2)C(C)C)C(=O)OC)c1"
classification = "Yes"

[[record]]
compound = "O=C(Nc1ccc(-n2cc(-c3ccncc3)c(-c3ccc(Cl)c(O)c3)n2)cc1)c1ccc(Cl)c(Cl)c1"
classification = "No"

[[record]]
compound = "COc1cc(-c2nn(-c3ccc(NC(=O)c4cc(Cl)cc(Cl)c4)cc3)cc2-c2ccncc2)ccc1Cl"
classification = "No"


Continue with the next compound.
How did this test come out for CC(O)C(N)=O (stereo not given) ? No

* * *

Tested on: HOP-92 NSCLC
Assay: NCI-60 one-dose screen, 48 h (100 = growth as untreated, 0 = no growth, -100 = all killed)
Settings: 10 µM
Compounds without any hit were thinned out: in the full panel of roughly 83,000, 20% have a hit.
Label scheme for growth: label 0 = under 40%, label 1 = from 40% up to 80%, label 2 = 80% and over

Before answering, review these 5 worked examples.
[[record]]
molecule = "COc1cc2ncnc(-n3ncc4cc(NC(=O)Nc5ccc(Cl)c(Cl)c5)ccc43)c2cc1OC"
assay_system = "HOP-92 NSCLC"
classification = "label 0"

[[record]]
molecule = "COC1NC(Cl)=C(C#N)C(C#N)(C#N)C1(C)C (stereo not given)"
assay_system = "HOP-92 NSCLC"
classification = "label 2"

[[record]]
molecule = "O=C(/C=C/c1cccc(O)c1)c1cccc(-n2cc(-c3ccc(Cl)cc3)[nH]c2=O)c1"
assay_system = "HOP-92 NSCLC"
classification = "label 0"

[[record]]
molecule = "CCOC(=O)C1=NN(c2ccccc2)C2=NC(=O)/C(=C\\c3cn(-c4ccccc4)nc3-c3cc4ccccc4o3)C(=O)N12"
assay_system = "HOP-92 NSCLC"
classification = "label 1"

[[record]]
molecule = "O=C(N/N=C/c1ccccc1Cl)c1cccc2ccccc12"
assay_system = "HOP-92 NSCLC"
classification = "label 2"


Which growth band matches CC(=O)NNC(=O)c1sc(NC(C)=O)nc1C ? label 1

Which growth band matches COC(=O)C(C)[C@H]1CC[C@@H]2[C@]1(C)CC=C1[C@]23C=C[C@]2(C[C@@H](OC(C)=O)CC[C@]12C)C(C(=O)OC)C3C(=O)OC (stereo not given in full) ? label 2

Which growth band matches CC(=O)Nc1nc(C)c(C(=O)NN)s1 ? label 0

Which growth band matches CC(C)OC(=O)c1ccc2n1CCCc1cnc(Nc3ccccc3)nc1-2 ? label 1

Which growth band matches CCCCCCCCCCCCCCCCCC1=NCCN1CS(=O)(=O)O ? label 0

* * *

System: HOP-92 NSCLC
Experiment: NCI-60 one-dose screen, 48 h (100 = growth as untreated, 0 = no growth, -100 = all killed)
Conditions: 10 µM
Protocol: Growth inhibition of the HOP-92 human Non-Small Cell Lung tumor cell line is measured as a screen for anti-cancer activity. Cells are grown in 96 well plates and exposed to the test compound for 48 hours. Compounds are tested at a single concentration, which is 10^-5 M for most compounds. The reported endpoint is percent growth (GI% or GIPRCNT), where numbers from 0 - 100% represent growth inhibition, and numbers from -100% - 0 represent cell death. […]
About 83,000 compounds went through this panel and 20% of them were active in at least one assay; those are over-represented in the sample as a whole. Active and inactive are the calls of the source. The calls were made as follows: active = growth percent below 10; inactive = the rest.
measure: growth

[[record]]
compound = "O=Nc1c(-c2c(O)[nH]c3cc(Br)ccc23)[nH]c2ccccc12"
measure = "growth"
result = "14.4% (inactive)"

[[record]]
compound = "COc1ccc(C2C3(C#N)C(N)=NC(=C(C#N)C#N)C23C#N)cc1OC (configuration not stated)"
measure = "growth"
result = "76.8% (inactive)"

[[record]]
compound = "CC(=O)c1nn(-c2ccc(C)cc2)cc1C(=O)c1cc2c(ccc3ccccc32)oc1=O"
measure = "growth"
result = "77.6% (inactive)"

[[record]]
compound = "Nc1nc2c(c3cnccc13)C(c1ccc(Cl)c(Cl)c1)Cc1cnccc1-2 (configuration not stated)"
measure = "growth"
result = "-45% (active)"

[[record]]
compound = "O=C(NCCCl)Nc1nccnc1OCc1ccc(F)cc1"
measure = "growth"
result = "79.4% (inactive)"

[[record]]
compound = "COc1cc2ncnc(Nc3ccc4c(cnn4C(=O)Nc4ccccc4)c3)c2cc1OC"
measure = "growth"
result = "82.8% (inactive)"

[[record]]
compound = "COCC(=O)NNc1[nH]c(-c2ccc(OC)cc2)cc1C#N"
measure = "growth"
result = "95.4% (inactive)"

[[record]]
compound = "COc1ccc2oc(=O)cc(CN3C(=O)S/C(=C\\c4ccc(Cl)cc4)C3=O)c2c1"
measure = "growth"
result = "86.5% (inactive)"


Indicate the recorded growth value for this compound: COc1ccc(OC)c(Cn2cc3c(c2-c2ccccc2)CCc2cnoc2-3)c1 59.8% (inactive)

Indicate the recorded growth value for this compound: COc1cc(CCNc2cnc3cc(N)cc(N)c3n2)cc(OC)c1 154% (inactive)

Indicate the recorded growth value for this compound: Clc1ccc(N/N=C/c2ccccn2)nc1 39.7% (inactive)

Indicate the recorded growth value for this compound: COc1ccc(-c2cc(C#N)c(NNC(C)=O)[nH]2)cc1 178% (inactive)

* * *

Tested on: HCT-15 colon
Assay: NCI-60 one-dose screen, 48 h
Conditions: 10 µM unless noted
This is part of a sample that, as a whole, favours compounds with a hit. Of some 83,000 tested, about 20% had one in any assay. Activity calls are given as the source filed them. The calls were made as follows: active = growth percent below 10; inactive = the rest.
Outcome (select one): 1 = active, -1 = inactive

Before answering, review these 3 worked examples.
[[record]]
smiles_representation = "Cc1ncc(C(=O)Nc2ccc(CN3CCN(C)CC3)c(C(F)(F)F)c2)cc1C#Cc1c(N)ncc2ccc(F)cc12"
assay_system = "HCT-15 colon"
classification = 1

[[record]]
smiles_representation = "COc1cc(/C=C/C(=O)/C=C(/C=C/c2ccc(OC(C)=O)c(OC)c2)OB(F)F)ccc1OC(C)=O"
assay_system = "HCT-15 colon"
classification = -1

[[record]]
smiles_representation = "COc1ccc(/C=C(/C(=O)N2CCCCC2)c2cc(OC)c(OC)c(OC)c2)cc1"
assay_system = "HCT-15 colon"
classification = -1


How did this test come out for COc1ccc(-c2cn3ccnc3c(-c3ccc4ncn(C5CCCCC5)c4c3)n2)cc1 ? -1

How did this test come out for COc1ccc(-c2nc(SCC(C)C)nc(Nc3ccc([N+](=O)[O-])cc3)c2C#N)cc1 ? -1

How did this test come out for COCC(=O)NNc1[nH]c(-c2ccc(OC)cc2)cc1C#N ? -1

* * *

Reported growth by item:
Tested on: CAKI-1 renal
Assay: NCI-60 one-dose screen, 48 h (100 = growth as untreated, 0 = no growth, -100 = all killed)
Details: 10 µM unless noted
Compounds without any hit were thinned out: in the full panel of roughly 83,000, 20% have a hit. The source made the active and inactive calls. The calls were made as follows: active = growth percent below 10; inactive = the rest.

These solved cases illustrate the format of a correct answer.
[[record]]
compound = "CCCCCCCCCCCCCCCCCC1=NCCN1CCNC(C)=O"
result = "87.6% (inactive)"

[[record]]
compound = "FC(F)(F)c1cccc(-c2[nH]ncc2-c2nnnn2-c2ccccc2)c1"
result = "69.4% (inactive)"

[[record]]
compound = "CCCCCCC(C)N(CC(C)(C)O)C(=O)c1ccc([N+](=O)[O-])cc1 (configuration not stated)"
result = "108% (inactive)"


Indicate the recorded growth value for this compound: CC(C)OC(=O)Nn1cnc2ccccc21 92.2% (inactive)

Indicate the recorded growth value for this compound: C=C(C)C(C(=O)OCC)(C(=O)OCC)C(C)C 105% (inactive)

Indicate the recorded growth value for this compound: CCOc1ccc2nc3ccc(Cl)cc3nc2c1 124% (inactive)

Indicate the recorded growth value for this compound: COc1ccc(C(=O)NCCNc2nccc(-c3c(-c4ccc(F)cc4)nc4sccn34)n2)cc1 43.6% (inactive)

Indicate the recorded growth value for this compound: N#CC1=C(N2CCOCC2)NC2c3ccccc3Sc3ccccc3N2C1=N (configuration not stated) 94% (inactive)

Indicate the recorded growth value for this compound: COC(=O)[C@@H]1[C@H](O)[C@H](C)[C@H](O)[C@H](C)/C=C\C=C(C)C(=O)Nc2c(C)c(OC(C)=O)c3c(c2O)C(=O)C(C)=C2OCOC(=C23)C(C)=C[C@@](C)(O)[C@H](O)[C@@H](C)[C@H]1OC(C)=O 116% (inactive)

Indicate the recorded growth value for this compound: COc1ccc(Cn2cc3c(c2-c2ccccc2)CCc2cnoc2-3)cc1OC 18.9% (inactive)

Indicate the recorded growth value for this compound: CC(=O)Nc1ccc(CC#N)cc1Br 96.5% (inactive)

Indicate the recorded growth value for this compound: O=C(CBr)OCc1ccc([N+](=O)[O-])o1 53.8% (inactive)

Indicate the recorded growth value for this compound: COc1ccc(Cn2cc3c(c2-c2ccc(O)cc2)CCc2cnoc2-3)cc1 15.3% (inactive)
